Reported DC50 is given for each of the following compounds.
Biological target: Cbl-b (Homo sapiens)
Construct: Cbl-b-HiBit KI Jurkat Cells were purchased from Promega; host or cells: Cbl-b-HiBiT knock-in Jurkat cells
Assay: Cbl-b Degradation Method B (Nano-Glo HiBiT lytic detection)
Type: cell-based
Conditions: Cbl-b-HiBit KI Jurkat Cells, incubated at least 6-24 hours; half maximal degradation; read-out: Cbl-b Degredation Method B IC50
propertyLabel: DC50

- Cn1cnnc1CC1(c2cccc(N3Cc4c(cc(N5CC6(CN(c7ccc8c(c7)C(=O)N(C7CCC(=O)NC7=O)C8=O)C6)C5)cc4C(F)(F)F)C3=O)c2)COC1 (stereo not drawn): > 500 nM
- Cc1cc(N2CCC(CN3CCC4(CC3)CN(c3cc5c(c(C(F)(F)F)c3)CN(c3cccc([C@]6(Cc7nncn7C)C[C@@H](C#N)C6)c3)C5=O)C4)CC2)c(F)c2c1C(=O)N(C1CCC(=O)NC1=O)C2 (stereo partly drawn): < 5 nM
- C[C@@H]1c2nc(N3CCC(O[C@H]4CC[C@H](CN5CCN(Cc6cc7c(c(C(F)(F)F)c6)CN(c6cccc(C8(Cc9nncn9C)CC(C#N)C8)c6)C7=O)[C@@H](C)C5)CC4)CC3)ccc2C(=O)N1C1CCC(=O)NC1=O (single isomer, unassigned) [Example 248]: > 500 nM
- CC1c2nc(N3CCC(O[C@H]4CC[C@H](CN5C[C@H]6C[C@@H]5CN6Cc5cc6c(c(C(F)(F)F)c5)CN(c5cccc(C7(Cc8nncn8C)CCC7)c5)C6=O)CC4)CC3)ccc2C(=O)N1C1CCC(=O)NC1=O (stereo partly drawn): < 5 nM
- Cn1cnnc1CC1(c2cccc(N3Cc4c(cc(N5CCC[C@H](CN6CCC(CN7CCC(CN8CCN(c9ccc%10c(c9)C(=O)N(C9CCC(=O)NC9=O)C%10=O)CC8)CC7)CC6)C5)cc4C(F)(F)F)C3=O)c2)COC1 (stereo partly drawn): 5 to 50 nM
- Cn1cnnc1C[C@]1(c2cccc(N3Cc4c(cc(N5CC6(CCN(CC7CCN(c8ccc9c(c8)C(=O)N(C8CCC(=O)NC8=O)C9=O)CC7)CC6)C5)cc4C(F)(F)F)C3=O)c2)C[C@@H](C#N)C1 (stereo partly drawn): 5 to 50 nM
- CC1c2nc(N3CCC(O[C@H]4CC[C@H](CN5C[C@H]6C[C@@H]5CN6c5cc6c(c(C(F)(F)F)c5)CN(c5cccc([C@]7(Cc8nncn8C)C[C@@H](C#N)C7)c5)C6=O)CC4)CC3)ccc2C(=O)N1C1CCC(=O)NC1=O (stereo partly drawn): < 5 nM
- Cn1cnnc1CC1(c2cccc(N3Cc4c(cc(N5CC6(CCN(CC7CCN(c8ccc9c(c8F)CN(C8CCC(=O)NC8=O)C9=O)CC7)CC6)C5)cc4C(F)(F)F)C3=O)c2)COC1 (stereo not drawn): < 5 nM
- CC1c2nc(N3CCC(CN4CCN(CC5CCN(Cc6cc7c(c(C(F)(F)F)c6)CN(c6cccc([C@]8(Cc9nncn9C)C[C@@H](C#N)C8)c6)C7=O)C6(CC6)C5)CC4)CC3)ccc2C(=O)N1C1CCC(=O)NC1=O (stereo partly drawn): 5 to 50 nM

* * *

Target: Cbl-b (Homo sapiens, UniProt Q13191)
Construct: Cbl-b-HiBit KI Jurkat Cells were purchased from Promega; host or cells: Cbl-b-HiBiT knock-in Jurkat cells
Sequence (Q13191 whole entry): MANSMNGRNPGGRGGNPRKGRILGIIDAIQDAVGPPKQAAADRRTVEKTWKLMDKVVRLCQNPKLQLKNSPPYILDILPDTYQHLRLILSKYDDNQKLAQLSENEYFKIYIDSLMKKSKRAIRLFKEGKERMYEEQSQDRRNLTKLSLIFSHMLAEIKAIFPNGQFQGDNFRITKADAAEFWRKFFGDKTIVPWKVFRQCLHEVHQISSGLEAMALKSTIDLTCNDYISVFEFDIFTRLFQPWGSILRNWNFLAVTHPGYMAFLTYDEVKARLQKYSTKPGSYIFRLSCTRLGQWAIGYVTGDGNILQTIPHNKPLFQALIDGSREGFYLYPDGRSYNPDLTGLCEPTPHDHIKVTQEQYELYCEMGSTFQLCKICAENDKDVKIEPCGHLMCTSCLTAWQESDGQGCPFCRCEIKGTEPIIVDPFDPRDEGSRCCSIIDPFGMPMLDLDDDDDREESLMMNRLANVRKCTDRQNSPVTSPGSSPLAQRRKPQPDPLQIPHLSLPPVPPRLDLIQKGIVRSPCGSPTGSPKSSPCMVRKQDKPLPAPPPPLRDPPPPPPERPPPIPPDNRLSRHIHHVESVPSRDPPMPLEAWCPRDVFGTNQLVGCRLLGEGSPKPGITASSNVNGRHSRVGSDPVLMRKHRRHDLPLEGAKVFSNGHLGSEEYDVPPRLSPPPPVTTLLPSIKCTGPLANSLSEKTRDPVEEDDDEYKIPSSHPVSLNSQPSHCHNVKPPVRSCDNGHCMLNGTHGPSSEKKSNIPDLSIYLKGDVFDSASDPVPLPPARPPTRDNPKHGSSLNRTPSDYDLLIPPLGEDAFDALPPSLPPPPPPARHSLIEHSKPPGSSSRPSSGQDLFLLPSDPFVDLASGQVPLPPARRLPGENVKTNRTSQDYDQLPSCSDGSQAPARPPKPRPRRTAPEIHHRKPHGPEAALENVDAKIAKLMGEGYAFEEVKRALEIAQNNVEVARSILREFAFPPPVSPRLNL
Assay: Cbl-b Degradation Method B (Nano-Glo HiBiT lytic detection)
Format: cell-based
Conditions: Cbl-b-HiBit KI Jurkat Cells, incubated at least 6-24 hours; half maximal degradation; read-out: Cbl-b Degredation Method B IC50
propertyLabel: DC50

* Cn1cnnc1CC1(c2cccc(N3Cc4c(cc(CN5CCC[C@H](CN6CCC7(CC6)CCN(c6ccc8c(c6)C(=O)N(C6CCC(=O)NC6=O)C8=O)CC7)C5)cc4C(F)(F)F)C3=O)c2)COC1 (stereo partly shown) [Example 98] | > 500 nM
* CC1c2nc(N3CCC(O[C@H]4CC[C@H](CN5CCN(Cc6cc7c(c(C(F)(F)F)c6)CN(c6cccc([C@]8(Cc9nncn9C)C[C@@H](C#N)C8)c6)C7=O)C(C)(C)C5)CC4)CC3)ccc2C(=O)N1C1CCC(=O)NC1=O (stereo partly shown) [Example 152] | < 5 nM
* C[C@@H]1c2nc(N3CCC(O[C@H]4CC[C@H](CN5CCN(Cc6cc7c(c(C(F)(F)F)c6)CN(c6cccc(C8(Cc9nncn9C)CC(C#N)C8)c6)C7=O)C6(CC6)C5)CC4)CC3)ccc2C(=O)N1C1CCC(=O)NC1=O (single isomer, unassigned) [Example 305] | > 500 nM
* Cn1cnnc1CC1(c2cccc(N3Cc4c(cc(N5CCC(CN6CCC7(CC6)CN(c6ccc8c(c6)C(=O)N(C6CCC(=O)NC6=O)C8=O)C7)CC5)cc4C(F)(F)F)C3=O)c2)COC1 (stereo not shown) [Example 23] | > 500 nM

Source listed as patent US20260184710A1.
